Measured values drawn from patent US20210355107A1 for this set.

- system.name: kinase Axl (Homo sapiens)
- Construct: purchased Carna 08-107
- Sequence (P30530 473-894 limits assumed): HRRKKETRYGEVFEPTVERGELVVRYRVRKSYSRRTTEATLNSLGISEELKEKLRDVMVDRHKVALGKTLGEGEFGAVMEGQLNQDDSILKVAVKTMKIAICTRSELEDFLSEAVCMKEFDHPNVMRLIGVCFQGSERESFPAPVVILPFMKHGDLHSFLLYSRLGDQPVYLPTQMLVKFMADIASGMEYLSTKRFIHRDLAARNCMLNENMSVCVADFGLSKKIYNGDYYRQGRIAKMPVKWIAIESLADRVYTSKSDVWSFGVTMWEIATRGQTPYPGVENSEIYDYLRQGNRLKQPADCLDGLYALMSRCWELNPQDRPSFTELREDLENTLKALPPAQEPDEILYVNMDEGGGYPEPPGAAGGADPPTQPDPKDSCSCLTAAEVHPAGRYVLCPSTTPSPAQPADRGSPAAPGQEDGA
- measurement.notes: Mobility shift assay, inhibitory activity against kinase Axl
- Type: biochemical
- setup.conditions: ATP at Km (81 μM), average of two independent experiments
assay.readout: IC50 (nM)
Numbers only here, please. The scale is nM.

Some entries whose results are on file:
Tested on kinase Axl (Homo sapiens), the item "COc1cc2nccc(Oc3ccc(NC(=O)c4cc(C)c(CN)n(-c5ccc(F)cc5)c4=O)cc3F)c2cc1OC" showed IC50 equal to 19

Tested on kinase Axl (Homo sapiens), the item COc1cc2nccc(Oc3ccc(NC(=O)c4cc(C)c(C#N)n(-c5ccc(F)cc5)c4=O)cc3F)c2cc1OC [Example 29A] showed IC50 equal to 3.1

Tested on kinase Axl (Homo sapiens), the item "COCc1c(C)cc(C(=O)Nc2ccc(Oc3ccnc4cc(OC)c(OC)cc34)c(F)c2)c(=O)n1-c1ccc(F)cc1" showed IC50 equal to 1

Okay, next one:
Tested on kinase Axl (Homo sapiens), the item "CC(C)n1cc(C(=O)Nc2ccc(-c3cc(-c4cnn(C)c4)cnc3N)c(F)c2)c(=O)c(-c2ccc(F)cc2)c1C#N" showed IC50 equal to 0.28
